- measurement_target: MRGPRX4 (Homo sapiens, UniProt Q96LA9)
- Sequence (Q96LA9 whole entry): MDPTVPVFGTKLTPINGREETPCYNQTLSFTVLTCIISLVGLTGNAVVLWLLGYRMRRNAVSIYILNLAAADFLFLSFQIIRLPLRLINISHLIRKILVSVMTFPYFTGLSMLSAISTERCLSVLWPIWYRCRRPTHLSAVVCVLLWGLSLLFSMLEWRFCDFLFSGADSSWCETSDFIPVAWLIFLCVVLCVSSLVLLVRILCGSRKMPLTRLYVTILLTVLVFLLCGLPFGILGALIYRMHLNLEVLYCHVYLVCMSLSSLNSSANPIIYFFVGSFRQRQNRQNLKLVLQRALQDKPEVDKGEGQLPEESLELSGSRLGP
- assay_method_text: MRGPRX4 activation, Fluo-8 Ca2+ FLIPR assay in HEK293T cells stably expressing MRGPRX4
- Type: cell-based
- test_settings: Conc. (Log[M]) −5.0
Catalogue of compounds with associated MRGPRX4 activation, fluorescence change (dF/F0), Average
// no unit string in output, number only

>  <smiles_notation>
CC[C@H]1[C@@H](O)[C@@H]2[C@H](CC[C@]3(C)[C@@H]([C@H](C)CCNC(=O)NS(=O)(=O)c4ccc(C(C)(C)C(N)=O)cc4)CC[C@@H]23)[C@@]2(C)CCCC[C@@H]12

>  <value>
0.010

$$$$
>  <smiles_notation>
CC[C@H]1[C@@H](O)[C@@H]2[C@H](CC[C@]3(C)[C@@H]([C@H](C)CCNC(=O)NS(=O)(=O)c4ccc(C(C)(C)C#N)cc4)CC[C@@H]23)[C@@]2(C)CCCC[C@@H]12

>  <value>
0.019

$$$$

Exam item: Endpoint output: MRGPRX4 activation, fluorescence change (dF/F0), Average of CC[C@H]1[C@@H](O)[C@@H]2[C@H](CC[C@]3(C)[C@@H]([C@H](C)CCNC(=O)NS(=O)(=O)c4cc(F)cc(F)c4)CC[C@@H]23)[C@@]2(C)CCCC[C@@H]12 . Value?
Marked response: 0.021

Exam item: Endpoint output: MRGPRX4 activation, fluorescence change (dF/F0), Average of CC[C@H]1[C@@H](O)[C@@H]2[C@H](CC[C@]3(C)[C@@H]([C@H](C)CCNC(=O)NS(=O)(=O)c4ccc(C(C)(CO)CO)cc4)CC[C@@H]23)[C@@]2(C)CCCC[C@@H]12 . Value?
Marked response: 0.013

Exam item: Endpoint output: MRGPRX4 activation, fluorescence change (dF/F0), Average of CC[C@H]1[C@@H](O)[C@@H]2[C@H](CC[C@]3(C)[C@@H]([C@H](C)CCNC(=O)NS(=O)(=O)c4ccc(C(C)(C)CN)cc4)CC[C@@H]23)[C@@]2(C)CCCC[C@@H]12 . Value?
Marked response: 0.021

Exam item: Endpoint output: MRGPRX4 activation, fluorescence change (dF/F0), Average of CC[C@H]1[C@@H](O)[C@@H]2[C@H](CC[C@]3(C)[C@@H]([C@H](C)CCNC(=O)NS(=O)(=O)c4ccc(C5(CO)CCCC5)cc4)CC[C@@H]23)[C@@]2(C)CCCC[C@@H]12 . Value?
Marked response: 0.020

* * *

- measurement_target: human TGR5 (Homo sapiens)
- Sequence (Q8TDU6 whole entry): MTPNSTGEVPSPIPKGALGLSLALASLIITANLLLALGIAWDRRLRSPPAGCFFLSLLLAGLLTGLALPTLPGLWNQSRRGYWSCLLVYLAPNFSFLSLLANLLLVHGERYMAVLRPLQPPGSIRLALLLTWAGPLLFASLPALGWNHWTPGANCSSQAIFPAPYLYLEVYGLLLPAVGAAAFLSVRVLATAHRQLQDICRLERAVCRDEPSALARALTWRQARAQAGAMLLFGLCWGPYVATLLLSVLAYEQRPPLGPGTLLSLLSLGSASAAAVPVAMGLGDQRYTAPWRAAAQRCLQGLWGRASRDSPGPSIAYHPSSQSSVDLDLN
- assay_method_text: TGR5 agonist assessment, CRE-NanoLuc reporter in HEK293T cells
observable: pEC50
In plain terms, pEC50 is the concentration in mol/L turned into minus its base-10 logarithm.

Exam item: Find the measured pEC50: item CC[C@H]1[C@@H](O)[C@@H]2[C@H](CC[C@]3(C)[C@@H]([C@H](C)CCNC(=O)NS(=O)(=O)N(C)C)CC[C@@H]23)[C@@]2(C)CCCC[C@@H]12 , target or system human TGR5 (Homo sapiens).
Marked response: 7.89

* * *

- measurement_target: MRGPRX4 (Homo sapiens, UniProt Q96LA9)
- assay_method_text: MRGPRX4 activation, Fluo-8 Ca2+ FLIPR assay in HEK293T cells stably expressing MRGPRX4
- Format: cell-based
- test_settings: Conc. (Log[M]) −6
Output schema: class label derived from MRGPRX4 activation, fluorescence change (dF/F0), Average. Mapping: lower band (below -0.01), central band (-0.01 to below -0.006), upper band (-0.006 or more)

Look over these answered cases.
>  <compound>
C[C@H](CCC(=O)O)[C@H]1CC[C@H]2[C@@H]3CC[C@@H]4C[C@@H](O)CC[C@]4(C)[C@H]3C[C@H](O)[C@]12C

>  <label>
central band

$$$$
>  <compound>
CC[C@H]1[C@@H](O)[C@@H]2[C@H](CC[C@]3(C)[C@@H]([C@H](C)CCC(=O)OC)CC[C@@H]23)[C@@]2(C)CCCC[C@@H]12

>  <label>
lower band

$$$$
>  <compound>
C[C@]12CC[C@@H](O)C[C@H]1CC[C@@H]1[C@@H]2C[C@H](O)[C@]2(C)[C@@H](CCCCCC(=O)O)CC[C@@H]12

>  <label>
central band

$$$$
>  <compound>
CC[C@H]1[C@@H](OC(=O)c2cccc(I)c2)[C@@H]2[C@H](CC[C@]3(C)C([C@H](C)CCC(=O)OC)=CC(=O)[C@@H]23)[C@@]2(C)CCCC[C@@H]12

>  <label>
upper band

$$$$

Exam item: Please let me know in which category the item CC[C@H]1[C@@H](O)[C@@H]2[C@H](CC[C@]3(C)[C@@H]([C@H](C)CO)CC[C@@H]23)[C@@]2(C)CCCC[C@@H]12 belongs.
Marked response: lower band

Exam item: Please let me know in which category the item CC[C@H]1[C@@H](O)[C@@H]2[C@H](CC[C@]3(C)[C@@H]([C@H](C)CC(=O)O)CC[C@@H]23)[C@@]2(C)CCCC[C@@H]12 belongs.
Marked response: lower band

Exam item: Please let me know in which category the item CC[C@H]1[C@@H](OC(=O)c2cccc(I)c2)[C@@H]2[C@H](CC[C@]3(C)[C@@H]([C@H](C)CCC(=O)OC)CC[C@@H]23)[C@@]2(C)CCCC[C@@H]12 belongs.
Marked response: lower band

Exam item: Please let me know in which category the item CC[C@H]1[C@@H](O)[C@@H]2[C@H](CC[C@]3(C)[C@@H]([C@H](C)CCNC(=O)NS(=O)(=O)c4ccc(C(C)(C)CO)cc4)CC[C@@H]23)[C@@]2(C)CCCC[C@@H]12 belongs.
Marked response: upper band

Exam item: Please let me know in which category the item CC[C@H]1[C@@H](O)[C@@H]2[C@H](CC[C@]3(C)[C@@H]([C@H](C)CCNC(=O)NS(=O)(=O)C4CCC(C)(C)CC4)CC[C@@H]23)[C@@]2(C)CCCC[C@@H]12 belongs.
Marked response: upper band

Exam item: Please let me know in which category the item CC[C@H]1[C@@H](O)[C@@H]2[C@H](CC[C@]3(C)[C@@H]([C@H](C)CCNC(=O)NS(=O)(=O)c4ccc(C(C)(C)C(=O)O)cc4)CC[C@@H]23)[C@@]2(C)CCCC[C@@H]12 belongs.
Marked response: upper band

* * *

Catalogue of compounds with associated MRGPRX4 activation, fluorescence change (dF/F0), Average
- measurement_target: MRGPRX4 (Homo sapiens, UniProt Q96LA9)
- assay_method_text: MRGPRX4 activation, Fluo-8 Ca2+ FLIPR assay in HEK293T cells stably expressing MRGPRX4
- Type: cell-based
- test_settings: Conc. (Log[M]) −5
// no unit string in output, number only

>  <compound>
CC[C@H]1[C@@H](O)[C@@H]2[C@H](CC[C@]3(C)[C@@H]([C@H](C)CC(=O)O)CC[C@@H]23)[C@@]2(C)CCCC[C@@H]12 [compound 26]

>  <value>
−0.090

$$$$
>  <compound>
CC[C@H]1[C@@H](OC(=O)c2cccc(I)c2)[C@@H]2[C@H](CC[C@]3(C)C([C@H](C)CCC(=O)OC)=CC(=O)[C@@H]23)[C@@]2(C)CCCC[C@@H]12 [3-2]

>  <value>
−0.003

$$$$
>  <compound>
CC[C@H]1[C@@H](O)[C@@H]2[C@H](CC[C@]3(C)[C@@H]([C@H](C)CCC(=O)NS(=O)(=O)C(C)(C)C)CC[C@@H]23)[C@@]2(C)CCCC[C@@H]12 [4-1]

>  <value>
−0.037

$$$$
>  <compound>
CC[C@H]1[C@@H](O)[C@@H]2[C@H](CC[C@]3(C)[C@@H]([C@H](C)CCNC(=O)NS(=O)(=O)c4ccc(C(C)(C)CO)cc4)CC[C@@H]23)[C@@]2(C)CCCC[C@@H]12 [5-2]

>  <value>
0.023

$$$$
>  <compound>
CC[C@H]1[C@@H](O)[C@@H]2[C@H](CC[C@]3(C)[C@@H]([C@H](C)CCNC(=O)NS(=O)(=O)c4ccc5c(c4)OCO5)CC[C@@H]23)[C@@]2(C)CCCC[C@@H]12 [5-6]

>  <value>
0.010

$$$$
>  <compound>
C[C@H](CCC(C)(C)O)[C@H]1CC[C@H]2[C@@H]3CC[C@@H]4CCCC[C@]4(C)[C@H]3CC[C@]12C [2-3]

>  <value>
−0.036

$$$$

Exam item: Find the measured MRGPRX4 activation, fluorescence change (dF/F0), Average: item C[C@H](CCC(=O)O)[C@H]1CC[C@H]2[C@@H]3[C@H](O)C[C@@H]4C[C@H](O)CC[C@]4(C)[C@H]3CC[C@]12C [CDCA, chenodeoxycholic acid, reference compound] , target or system MRGPRX4 (Homo sapiens, UniProt Q96LA9).
Marked response: 0.082

Exam item: Find the measured MRGPRX4 activation, fluorescence change (dF/F0), Average: item CC[C@H]1[C@@H](OC(=O)c2cccc(I)c2)[C@@H]2[C@H](CC[C@@]3(C)[C@H]2CC[C@]3(Cl)[C@H](C)CCC(=O)OC)[C@@]2(C)CCCC[C@@H]12 [1-6] , target or system MRGPRX4 (Homo sapiens, UniProt Q96LA9).
Marked response: −0.001

Exam item: Find the measured MRGPRX4 activation, fluorescence change (dF/F0), Average: item COC(=O)CC[C@@H](C)[C@H]1CC[C@H]2[C@@H]3/C(=N\OC(C)(C)C(=O)O)C[C@@H]4C[C@H](OC(C)=O)CC[C@]4(C)[C@H]3CC[C@]12C [1-3] , target or system MRGPRX4 (Homo sapiens, UniProt Q96LA9).
Marked response: 0.047

Exam item: Find the measured MRGPRX4 activation, fluorescence change (dF/F0), Average: item CC[C@H]1[C@@H](O)[C@@H]2[C@H](CC[C@]3(C)[C@@H]([C@H](C)CC#N)CC[C@@H]23)[C@@]2(C)CCCC[C@@H]12 [2-4] , target or system MRGPRX4 (Homo sapiens, UniProt Q96LA9).
Marked response: −0.026

Exam item: Find the measured MRGPRX4 activation, fluorescence change (dF/F0), Average: item C[C@H](CC(=O)O)[C@H]1CC[C@H]2[C@@H]3CC[C@@H]4C[C@H](O)CC[C@]4(C)[C@H]3C[C@H](O)[C@]12C [RC-1] , target or system MRGPRX4 (Homo sapiens, UniProt Q96LA9).
Marked response: −0.029
